Overview of recorded pIC50 for various compounds
biological target: T-type calcium channel (Homo sapiens, UniProt O43497); test: T-type channel blocking, FLIPR data (Table 6); conditions: CAv3.1
Sequence (O43497 whole entry): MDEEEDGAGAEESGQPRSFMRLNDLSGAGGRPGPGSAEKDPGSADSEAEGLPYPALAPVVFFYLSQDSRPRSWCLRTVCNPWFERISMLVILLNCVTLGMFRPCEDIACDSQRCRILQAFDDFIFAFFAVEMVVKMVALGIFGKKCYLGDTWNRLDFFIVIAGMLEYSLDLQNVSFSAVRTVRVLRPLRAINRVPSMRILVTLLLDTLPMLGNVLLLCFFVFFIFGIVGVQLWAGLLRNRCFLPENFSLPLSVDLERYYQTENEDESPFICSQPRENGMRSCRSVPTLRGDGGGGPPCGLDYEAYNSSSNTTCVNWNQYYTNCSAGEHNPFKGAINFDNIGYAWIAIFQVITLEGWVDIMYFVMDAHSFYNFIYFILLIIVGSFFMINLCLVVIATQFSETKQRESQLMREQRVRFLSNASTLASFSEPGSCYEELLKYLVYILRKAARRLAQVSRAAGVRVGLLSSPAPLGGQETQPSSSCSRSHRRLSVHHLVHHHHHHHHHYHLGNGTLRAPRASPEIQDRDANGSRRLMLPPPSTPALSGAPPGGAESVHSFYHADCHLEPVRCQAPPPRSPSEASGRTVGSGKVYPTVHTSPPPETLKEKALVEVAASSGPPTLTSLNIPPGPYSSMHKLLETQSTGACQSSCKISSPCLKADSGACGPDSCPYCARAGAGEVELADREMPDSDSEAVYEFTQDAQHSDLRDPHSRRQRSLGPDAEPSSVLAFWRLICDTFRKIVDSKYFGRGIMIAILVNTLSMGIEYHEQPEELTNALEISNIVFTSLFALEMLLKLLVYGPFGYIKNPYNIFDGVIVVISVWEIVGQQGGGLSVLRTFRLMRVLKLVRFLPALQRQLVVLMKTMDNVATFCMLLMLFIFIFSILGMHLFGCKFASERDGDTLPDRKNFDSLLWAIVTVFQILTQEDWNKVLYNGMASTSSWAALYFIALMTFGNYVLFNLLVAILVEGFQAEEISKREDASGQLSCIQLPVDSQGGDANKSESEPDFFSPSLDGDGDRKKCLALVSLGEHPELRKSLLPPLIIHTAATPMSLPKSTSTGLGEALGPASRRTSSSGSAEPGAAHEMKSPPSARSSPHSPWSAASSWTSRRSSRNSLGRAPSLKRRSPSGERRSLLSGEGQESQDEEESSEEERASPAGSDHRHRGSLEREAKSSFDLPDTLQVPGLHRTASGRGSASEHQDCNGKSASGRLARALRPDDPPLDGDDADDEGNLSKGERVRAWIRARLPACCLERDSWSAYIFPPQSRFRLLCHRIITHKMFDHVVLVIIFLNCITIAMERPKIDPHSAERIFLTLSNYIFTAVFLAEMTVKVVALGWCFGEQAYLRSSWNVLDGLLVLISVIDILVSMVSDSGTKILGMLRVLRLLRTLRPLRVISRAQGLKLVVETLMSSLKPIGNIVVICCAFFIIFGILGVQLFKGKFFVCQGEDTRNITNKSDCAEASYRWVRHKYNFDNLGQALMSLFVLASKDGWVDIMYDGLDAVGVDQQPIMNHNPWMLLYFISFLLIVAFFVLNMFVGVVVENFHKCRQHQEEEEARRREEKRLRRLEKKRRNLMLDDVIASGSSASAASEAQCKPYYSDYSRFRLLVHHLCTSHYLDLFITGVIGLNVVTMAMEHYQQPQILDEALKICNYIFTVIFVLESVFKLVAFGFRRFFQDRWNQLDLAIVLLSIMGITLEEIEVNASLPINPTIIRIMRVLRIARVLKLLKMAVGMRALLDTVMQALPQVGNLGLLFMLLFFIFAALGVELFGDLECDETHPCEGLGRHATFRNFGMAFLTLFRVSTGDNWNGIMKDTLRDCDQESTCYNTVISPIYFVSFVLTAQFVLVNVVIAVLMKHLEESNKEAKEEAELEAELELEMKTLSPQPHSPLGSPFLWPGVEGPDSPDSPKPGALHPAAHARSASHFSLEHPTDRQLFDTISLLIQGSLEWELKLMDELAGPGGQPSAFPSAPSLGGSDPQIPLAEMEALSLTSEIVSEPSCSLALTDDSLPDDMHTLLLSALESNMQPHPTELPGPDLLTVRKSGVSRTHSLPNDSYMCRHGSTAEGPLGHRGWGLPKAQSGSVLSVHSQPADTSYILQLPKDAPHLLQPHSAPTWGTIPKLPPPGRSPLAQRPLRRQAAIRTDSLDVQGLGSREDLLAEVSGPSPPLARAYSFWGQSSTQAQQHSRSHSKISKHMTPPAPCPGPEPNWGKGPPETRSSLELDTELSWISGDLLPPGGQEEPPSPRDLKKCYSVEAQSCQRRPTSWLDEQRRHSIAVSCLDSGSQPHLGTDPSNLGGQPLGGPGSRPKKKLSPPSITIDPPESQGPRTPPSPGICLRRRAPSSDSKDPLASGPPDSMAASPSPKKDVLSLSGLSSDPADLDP
pIC50 is defined as minus the log10 of a concentration measured in mol/L.

Example cases with answers are listed next.
CC(C)([C@H]1C[C@@H](NC(=O)c2ccc(C(F)(F)F)cc2)C1)S(=O)(=O)c1cccc(C(F)(F)F)c1 | 5.32
CC(C)S(=O)(=O)c1cc(C(F)(F)F)cnc1C(=O)N[C@H]1C[C@@H](CC(C)(C)S(=O)(=O)c2cccc(C(F)(F)F)c2)C1 | 5.08

Input: Record CC(C)([C@H]1C[C@H](NS(=O)(=O)c2ccc(OC(F)(F)F)cc2)C1)S(=O)(=O)c1cc(F)cc(C(F)(F)F)c1 : what is its pIC50 with T-type calcium channel (Homo sapiens, UniProt O43497)?
Output: 5.28

Input: Look up pIC50 with T-type calcium channel (Homo sapiens, UniProt O43497) for this compound: CC(C)([C@H]1C[C@H](C(=O)Nc2ccc(C(F)(F)F)cn2)C1)S(=O)(=O)c1cccc(C(F)(F)F)c1
Output: 5.58

Input: Notebook: pull reported pIC50 for T-type calcium channel (Homo sapiens, UniProt O43497), entry CC(C)(C[C@H]1C[C@H](NC(=O)c2ccc(C(F)(F)F)cc2)C1)S(=O)(=O)c1cccc(C(F)(F)F)c1
Output: 5.75
